Give measured pEC50 for each item. Keep answers brief.
Target: human somatostatin receptor subtype 2 (Homo sapiens, UniProt P30874)
Construct: expressed in transfected cells
Assay: Functional assay for SSTR2 agonists (HTRF cAMP)
Type: cell-based
Settings: CHO-K1 cells stably expressing human SST2; NKH477-stimulated cAMP; 20 min at 37 C; read-out: hSST2 cAMP Avg EC50
Scale note: pEC50 = -log10(concentration in M).

Q. // Input: CC[C@H](C)[C@@H]([C@@H](CC(=O)N1CCC[C@H]1[C@H](OC)[C@@H](C)C(=O)N[C@H](C)[C@@H](O)c1ccccc1)OC)N(C)C(=O)[C@@H](NC(=O)[C@H](C(C)C)N(C)C(=O)OCc1ccc(NC(=O)[C@H](CCCNC(N)=O)NC(=O)[C@@H](NC(=O)[C@@H](NC(=O)CCOCCC(=O)NCCNc2ncc(-c3cc(C)cc(F)c3)c(N3CCC(N)CC3)c2-c2nc3ccc(Cl)cc3[nH]2)c2cnn(C)c2)C(C)C)c(OCC(=O)O)c1)C(C)C [Compound 203] . Output its pEC50 only.
A. 9.96

Q. Please list pEC50 recorded for the molecule CC[C@H](C)[C@@H]([C@@H](CC(=O)N1CCC[C@H]1[C@H](OC)[C@@H](C)C(=O)N[C@H](C)[C@@H](O)c1ccccc1)OC)N(C)C(=O)[C@@H](NC(=O)[C@H](C(C)C)N(C)C(=O)OCc1ccc(NC(=O)[C@H](CCCNC(N)=O)NC(=O)[C@@H](NC(=O)[C@H](CCc2nnn[nH]2)NC(=O)CCOCCC(=O)NCCNc2ncc(-c3cc(C)cc(F)c3)c(N3CCC(N)CC3)c2-c2nc3ccc(Cl)cc3[nH]2)C(C)C)cc1C(=O)NCCN)C(C)C [Compound 84]
A. 9.55

Q. Quickly give me recorded pEC50 for CC[C@H](C)[C@@H]([C@@H](CC(=O)N1CCC[C@H]1[C@H](OC)[C@@H](C)C(=O)N[C@H](C)[C@@H](O)c1ccccc1)OC)N(C)C(=O)[C@@H](NC(=O)[C@H](C(C)C)N(C)C(=O)OCc1ccc(NC(=O)[C@@H](CCCNC(N)=O)NC(=O)[C@@H](NC(=O)CCOCCC(=O)NCCNc2ncc(-c3cc(C)cc(F)c3)c(N3CCC(N)CC3)c2-c2nc3ccc(Cl)cc3[nH]2)C(C)C)c(O[C@H]2[C@H](O)[C@@H](O)[C@H](O)[C@@H](C(=O)O)[C@H]2O)c1)C(C)C [Compound 241]
A. 9.72

Q. Identify measured pEC50 corresponding to CC[C@H](C)[C@@H]([C@@H](CC(=O)N1CCC[C@H]1[C@H](OC)[C@@H](C)C(=O)N[C@H](C)[C@@H](O)c1ccccc1)OC)N(C)C(=O)[C@@H](NC(=O)[C@H](C(C)C)N(C)C(=O)OCc1ccc(NC(=O)[C@H](CCCNC(N)=O)NC(=O)[C@@H](NC(=O)c2cc(NCCC(=O)NCCNc3ncc(-c4cc(C)cc(F)c4)c(N4CCC(N)CC4)c3-c3nc4ccc(Cl)cc4[nH]3)cc(C(=O)NCC(=O)O)c2)C(C)C)cc1)C(C)C [Compound 157]
A. 9.35

Q. Name the recorded pEC50 of the molecule listed here: CC[C@H](C)[C@@H]([C@@H](CC(=O)N1CCC[C@H]1[C@H](OC)[C@@H](C)C(=O)N[C@H](C)[C@@H](O)c1ccccc1)OC)N(C)C(=O)[C@@H](NC(=O)[C@H](C(C)C)N(C)C(=O)OCc1ccc(NC(=O)[C@H](C)NC(=O)[C@@H](NC(=O)CCOCCC(=O)NCCNc2ncc(-c3cc(C)cc(F)c3)c(N3CCC(N)CC3)c2-c2cc3ccc(F)cc3[nH]2)C(C)C)c(O[C@@H]2O[C@H](C(=O)O)[C@@H](O)[C@H](O)[C@H]2O)c1)C(C)C [Compound 116]
A. 9.72

Q. Tell us which pEC50 value is on record for CC[C@H](C)[C@@H]([C@@H](CC(=O)N1CCC[C@H]1[C@H](OC)[C@@H](C)C(=O)N[C@H](C)[C@@H](O)c1ccccc1)OC)N(C)C(=O)[C@@H](NC(=O)[C@H](C(C)C)N(C)C(=O)OCc1ccc(NC(=O)[C@H](CCCNC(N)=O)NC(=O)[C@@H](NC(=O)CCOCCC(=O)NCCNc2ncc(-c3cc(C)cc(F)c3)c(N3CCC(N)CC3)c2-c2nc3ccc(Cl)cc3[nH]2)C(C)C)c(OC)c1)C(C)C [Compound 11]
A. 9.48

Q. Give the reported value of pEC50 for this record: CC[C@H](C)[C@@H]([C@@H](CC(=O)N1CCC[C@H]1[C@H](OC)[C@@H](C)C(=O)N[C@H](C)[C@@H](O)c1ccccc1)OC)N(C)C(=O)[C@@H](NC(=O)[C@H](C(C)C)N(C)C(=O)OCc1ccc(NC(=O)[C@H](CCCNC(N)=O)NC(=O)[C@@H](NC(=O)C[C@@H](N)C(=O)NCCOCCC(=O)NCCNc2ncc(-c3cc(C)cc(F)c3)c(N3CCC(N)CC3)c2-c2nc3ccc(Cl)cc3[nH]2)C(C)C)c(O[C@@H]2O[C@H](C(=O)O)[C@@H](O)[C@H](O)[C@H]2O)c1)C(C)C [Compound 92]
A. 9.70

Q. Identify measured pEC50 corresponding to CC[C@H](C)[C@@H]([C@@H](CC(=O)N1CCC[C@H]1[C@H](OC)[C@@H](C)C(=O)N[C@H](C)[C@@H](O)c1ccccc1)OC)N(C)C(=O)[C@@H](NC(=O)[C@H](C(C)C)N(C)C(=O)OCc1ccc(NC(=O)[C@H](CCCNC(N)=O)NC(=O)[C@@H](NC(=O)c2cc(NC(=O)CCCC(=O)N(C)CC(=O)NCCNc3ncc(-c4cc(C)cc(F)c4)c(N4CCC(N)CC4)c3-c3nc4ccc(Cl)cc4[nH]3)cc(C(=O)NC[C@@H](N)C(=O)O)c2)C(C)C)cc1)C(C)C [Compound 171]
A. 9.48

Q. Consider the molecule CC[C@H](C)[C@@H]([C@@H](CC(=O)N1CCC[C@H]1[C@H](OC)[C@@H](C)C(=O)N[C@H](C)[C@@H](O)c1ccccc1)OC)N(C)C(=O)[C@@H](NC(=O)[C@H](C(C)C)N(C)C(=O)OCc1ccc(NC(=O)[C@H](CCCNC(N)=O)NC(=O)[C@@H](NC(=O)CCOCCC(=O)NCCNc2ncc(-c3cc(C)cc(F)c3)c(N3CCC(N)CC3)c2-c2nc3ccc(Cl)cc3[nH]2)C(C)C)c(O[C@@H]2O[C@H](C(=O)N[C@@H](CCCCNC(=O)CCCCc3ccc(I)cc3)C(=O)O)[C@@H](O)[C@H](O)[C@H]2O)c1)C(C)C [Compound 54] and give its recorded pEC50.
A. 9.59

* * *

Biological target: SST2 (Homo sapiens, UniProt P30874)
Construct: host or cells: PathHunter CHO-K1 SST2 cells
Sequence (P30874 whole entry): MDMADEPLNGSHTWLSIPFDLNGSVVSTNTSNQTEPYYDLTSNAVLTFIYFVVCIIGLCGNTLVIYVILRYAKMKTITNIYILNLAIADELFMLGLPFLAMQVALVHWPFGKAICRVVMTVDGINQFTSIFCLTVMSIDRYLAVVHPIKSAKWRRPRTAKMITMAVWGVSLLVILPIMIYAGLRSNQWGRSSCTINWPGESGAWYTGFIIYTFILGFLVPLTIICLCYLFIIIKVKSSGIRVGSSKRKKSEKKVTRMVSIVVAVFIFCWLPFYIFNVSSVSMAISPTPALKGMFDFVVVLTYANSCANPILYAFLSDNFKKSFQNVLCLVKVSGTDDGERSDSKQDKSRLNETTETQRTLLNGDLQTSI
Assay: PathHunter CHO-K1 SST2 Internalization Assay
Format: cell-based
Conditions: PathHunter CHO-K1 SST2 cells; 90 min at 37 C; luminescence; read-out: Internalization EC50
measurement.label: pEC50
In plain terms, pEC50 is the concentration in mol/L turned into minus its base-10 logarithm.

Q. Given the compound CC[C@H](C)[C@@H]([C@@H](CC(=O)N1CCC[C@H]1[C@H](OC)[C@@H](C)C(=O)N[C@H](C)[C@@H](O)c1ccccc1)OC)N(C)C(=O)[C@@H](NC(=O)C(C(C)C)N(C)C(=O)OCc1ccc(NC(=O)[C@H](CCCNC(N)=O)NC(=O)[C@@H](NC(=O)CCOCCC(=O)NCCNc2ncc(-c3cc(C)cc(F)c3)c(N3CCC(N)CC3)c2-c2nc3ccc(Cl)cc3[nH]2)C(C)C)c(O[C@@H]2O[C@H](C(=O)N3CCC(C(=O)O)CC3)[C@@H](O)[C@H](O)[C@H]2O)c1)C(C)C (some centres unmarked) , write its reported pEC50.
A. 8.36

Q. Answer with the recorded pEC50 for the compound listed here: CC[C@H](C)[C@@H]([C@@H](CC(=O)N1CCC[C@H]1[C@H](OC)[C@@H](C)C(=O)N[C@H](C)[C@@H](O)c1ccccc1)OC)N(C)C(=O)[C@@H](NC(=O)[C@H](C(C)C)N(C)C(=O)OCc1ccc(NC(=O)[C@H](CCCNC(N)=O)NC(=O)[C@@H](NC(=O)CCOCCC(=O)NCCNc2ncc(-c3cc(C)cc(F)c3)c(N3CCC(N)CC3)c2-c2nc3ccc(Cl)cc3[nH]2)C(C)C)c(O[C@@H]2O[C@H](C(=O)NCCOCCC(=O)O)[C@@H](O)[C@H](O)[C@H]2O)c1)C(C)C
A. 8.38

* * *

So I've got a bunch of molecules here, and I need their pEC50 values.
Molecular target: human somatostatin receptor subtype 2 (Homo sapiens, UniProt P30874)
Construct: expressed in transfected cells
Assay: Functional assay for SSTR2 agonists (HTRF cAMP)
Assay type: cell-based
Details: CHO-K1 cells stably expressing human SST2; NKH477-stimulated cAMP; 20 min at 37 C; read-out: hSST2 cAMP Avg EC50
Just the number, please; pEC50 means minus log10 of the concentration in mol/L.

Q. Report its pEC50 with human somatostatin receptor subtype 2 (Homo sapiens, UniProt P30874) as the test system: CC[C@H](C)[C@@H]([C@@H](CC(=O)N1CCC[C@H]1[C@H](OC)[C@@H](C)C(=O)N[C@H](C)[C@@H](O)c1ccccc1)OC)N(C)C(=O)[C@@H](NC(=O)[C@H](C(C)C)N(C)C(=O)OCc1ccc(NC(=O)[C@H](CCCNC(N)=O)NC(=O)[C@@H](NC(=O)CN(C)C(=O)CCOCCC(=O)NCCNc2ncc(-c3cc(C)cc(F)c3)c(N3CCC(N)CC3)c2-c2nc3ccc(Cl)cc3[nH]2)C(C)C)c(OCC(N)=O)c1)C(C)C [Compound 20]
A. 10.03

Q. // fetch pEC50 for CC[C@H](C)[C@@H]([C@@H](CC(=O)N1CCC[C@H]1[C@H](OC)[C@@H](C)C(=O)N[C@H](C)[C@@H](O)c1ccccc1)OC)N(C)C(=O)[C@@H](NC(=O)[C@H](C(C)C)N(C)C(=O)OCc1ccc(NC(=O)[C@H](C)NC(=O)[C@@H](NC(=O)CCOCCOCCOCCOCCC(=O)NCCNc2ncc(-c3cc(C)cc(F)c3)c(N3CCC(N)CC3)c2-c2cc3ccc(Cl)cc3[nH]2)C(C)C)c(O[C@@H]2O[C@H](C(=O)O)[C@@H](O)[C@H](O)[C@H]2O)c1)C(C)C [Compound 112] ; system: human somatostatin receptor subtype 2 (Homo sapiens, UniProt P30874)
A. 9.92

Q. Give the observed pEC50 of CC[C@H](C)[C@@H]([C@@H](CC(=O)N1CCC[C@H]1[C@H](OC)[C@@H](C)C(=O)N[C@H](C)[C@@H](O)c1ccccc1)OC)N(C)C(=O)[C@@H](NC(=O)[C@H](C(C)C)N(C)C(=O)OCc1ccc(NC(=O)[C@H](CCCNC(N)=O)NC(=O)[C@@H](NC(=O)c2cc(NCCOCCOCCOCCOCCC(=O)NCCNc3ncc(-c4cc(C)cc(F)c4)c(N4CCC(N)CC4)c3-c3nc4ccc(Cl)cc4[nH]3)cc(C(=O)NCC(=O)O)c2)C(C)C)cc1)C(C)C [Compound 144] for human somatostatin receptor subtype 2 (Homo sapiens, UniProt P30874).
A. 9.60
